- target or system: TbrCatL (Trypanosoma brucei rhodesiense, UniProt Q95PM0)
- Construct: Conor Caffrey (University of California San Diego)
- Sequence (Q95PM0 entry or part of it): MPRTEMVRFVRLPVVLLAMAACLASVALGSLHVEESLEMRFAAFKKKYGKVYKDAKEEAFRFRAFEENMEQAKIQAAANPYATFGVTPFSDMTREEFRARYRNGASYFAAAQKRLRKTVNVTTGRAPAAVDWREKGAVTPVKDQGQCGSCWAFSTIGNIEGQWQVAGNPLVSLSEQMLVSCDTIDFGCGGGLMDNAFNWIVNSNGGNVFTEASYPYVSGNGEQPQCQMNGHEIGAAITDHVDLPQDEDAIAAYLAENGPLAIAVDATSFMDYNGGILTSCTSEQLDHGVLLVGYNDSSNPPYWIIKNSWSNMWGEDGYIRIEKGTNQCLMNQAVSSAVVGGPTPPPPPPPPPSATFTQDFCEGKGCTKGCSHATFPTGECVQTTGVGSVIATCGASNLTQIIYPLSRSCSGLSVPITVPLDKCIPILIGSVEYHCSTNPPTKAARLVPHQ
- method: TbrCatL enzymatic inhibition assay (cleavage of fluorogenic substrate Z-FR-AMC);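 note: at 5 µM compound concentration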
- Format: biochemical
- condition notes: 10’ (pre-incubation); sheet Screening results
Each entry below carries its recorded TbrCatL Inhibition 10’.
The answer is to be given in %; state only the numeric part.

Observe how each entry below is paired with its result.
* CNC1C(OC2C(OC3C(O)C(O)C(N=C(N)N)C(O)C3N=C(N)N)OC(C)C2(O)C=O)OC(CO)C(O)C1O (stereo not shown) [MMV688994] | 1.5
* CCOc1ccc2cc(-c3nn(CC4CCN(C)CC4)c4ncnc(N)c34)ccc2c1 [MMV688854] | -5
* CC(C)n1ncc2c(C(=O)NCC(c3cccs3)N3CCOCC3)cc(-c3ccccc3)nc21 (stereo not shown) [MMV676406] | 15

What measured TbrCatL Inhibition 10’ goes with O=C(NC1CC1)c1ccc(N2CCOc3ccc(Cl)cc32)s1 [MMV020537] ?
6

What measured TbrCatL Inhibition 10’ goes with Oc1c(I)cc(I)c2cccnc12 [MMV002817] ?
-24

What measured TbrCatL Inhibition 10’ goes with COc1ccc(C2CC(c3cccs3)=NN2C(=O)c2ccco2)cc1OC (stereo not shown) [MMV019234] ?
22

What measured TbrCatL Inhibition 10’ goes with Cc1cccc(-c2nc(Nc3ccncn3)c3sccc3n2)n1 [MMV688122] ?
-8

What measured TbrCatL Inhibition 10’ goes with N#Cc1nc(-c2ccccc2)oc1S(=O)(=O)c1ccc(Cl)cc1 [MMV676412] ?
-69

What measured TbrCatL Inhibition 10’ goes with CC1(C)OB(O)c2ccc(C3=NOC(c4cc(Cl)c(F)c(Cl)c4)(C(F)(F)F)C3)cc21 (stereo not shown) [MMV687775] ?
-8

What measured TbrCatL Inhibition 10’ goes with Cc1cc(C)cc(COc2ccc3c(C)c(CCC(=O)O)c(=O)oc3c2C)c1 [MMV676476] ?
-2.6

----------
- target or system: cruzain (Trypanosoma cruzi);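 note: at 5 µM compound concentration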
- Sequence (P25779 123-337 limits assumed): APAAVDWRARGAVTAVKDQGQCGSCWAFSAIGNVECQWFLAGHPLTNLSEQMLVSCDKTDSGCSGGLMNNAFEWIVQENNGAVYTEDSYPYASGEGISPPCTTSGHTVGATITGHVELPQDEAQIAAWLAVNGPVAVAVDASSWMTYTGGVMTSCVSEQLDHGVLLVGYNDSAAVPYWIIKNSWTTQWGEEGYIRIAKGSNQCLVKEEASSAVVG
- method: biochemical
- condition notes: 0’ (no pre-incubation); sheet Screening results
experimental endpoint: Cruzain Inhibition 0’ (%)
The answer is to be given in %; state only the numeric part.

Observe how each entry below is paired with its result.
- CCC(Sc1nc2ccccc2o1)C(=O)Nc1nccs1 (stereo not drawn): 3.5
- CCCn1nnc(NC(=O)COc2ccc(C3CCCCC3)cc2)n1: 3
- Clc1ccc(CN2CCN(C3=NCCN3)CC2)cc1Cl: -3
- CNC(=O)C1Cc2ccccc2N1C(=O)Cc1ccc(F)cc1 (stereo not drawn): 10
- Cc1cc(C)n2nc(C(=O)Nc3cc(C(F)(F)F)ccc3N3CCOCC3)nc2n1: 1.6

What measured Cruzain Inhibition 0’ goes with CN1CCN(S(=O)(=O)c2ccc(-c3ccc4c(Nc5ncc(Cl)cn5)ccnc4c3)cc2)CC1 ?
30

What measured Cruzain Inhibition 0’ goes with COc1cccc(OCC(=O)c2ccc(Br)cc2)c1 ?
8

What measured Cruzain Inhibition 0’ goes with O=C(c1n[nH]c2c1CCCC2)N1CCN(Cc2ccc3c(c2)OCO3)CC1 ?
-6

What measured Cruzain Inhibition 0’ goes with CC(C)C(NC(=O)Cc1cccc2ccccc12)C(=O)Nc1cccc(C#N)c1 (stereo not drawn) ?
-1.7

Origin of values: paper PMC9967275
